System: SNB-19 CNS
ASSAY INFO: NCI tumour cell line growth inhibition, 48 h; in the data active = GI50 below about 0.43 µM; inactive = the rest
Would you mind answering with one of these outcomes? active, inactive

Prompt: Tell me the recorded outcome of this test for "CCOC(=O)/C(C#N)=C\C=C(/Cl)c1ccc(Cl)cc1" .
Response: inactive

Prompt: Kindly provide the recorded test outcome for the following molecule: "C(=N\Nc1nnn(Cc2ccccc2)n1)/c1ccccc1"
Response: inactive

Prompt: Kindly provide the recorded test outcome for the following molecule: "O=c1oc2ccc(I)cc2c(=O)n1-c1ccc(Cl)cc1F"
Response: inactive

Prompt: Hello, I am checking results. What call was entered for "C=C(CN(C)C)C(=O)c1ccccc1[N+](=O)[O-]" ?
Response: inactive

Prompt: Answer briefly: the call reported for C=C1C(=O)O[C@H]2[C@H]1CC/C(COC(=O)NCC(C)c1ccc(CC(C)C)cc1)=C\CC[C@@]1(C)O[C@@H]21 (stereo not given in full) in this assay.
Response: inactive

Prompt: Record lookup: outcome of this test for "O=c1c(F)cn(Cc2ccccc2CCl)c(=O)n1Cc1ccccc1CCl" ?
Response: inactive

Prompt: Would you mind telling me which call this test gave "O=C(Nc1ccc(Cl)c(Cl)c1)NS(=O)(=O)c1cnccc1Oc1ccc(F)cc1" ?
Response: inactive

Prompt: What call does the record list for "C=C1C[C@@H]2CC[C@@]34C[C@H]5O[C@H]6[C@@H](O3)[C@H]3O[C@H](CC[C@@H]3O[C@H]6[C@@H]5O4)CC(=O)C[C@@H]3[C@@H](OC)[C@@H](C[C@H](O)CN)O[C@H]3C[C@H]3O[C@@H](CC[C@@H]1O2)C[C@@H](C)C3=C" ?
Response: active

Prompt: // param item: CCC1=CC2CN(C1)Cc1c([nH]c3ccccc13)[C@@](C(=O)OC)(c1cc3c(cc1OC)N(C)[C@H]1[C@@](O)(C(=O)OC)[C@H](OC(C)=O)[C@]4(CC)C=CCN5CC[C@]31[C@@H]54)C2 (stereo not given in full) ; yields the recorded call
Response: active

Prompt: How was "Cc1cc(I)cc(CN(C)CCCN2CCCC2)c1O" classified in this test?
Response: inactive

###

System: A498 renal
ASSAY INFO: NCI tumour cell line growth inhibition, 48 h; in the data active = GI50 below about 0.43 µM; inactive = the rest
Select the correct class. Options are true (1) (active), false (0) (inactive) and nothing else.

Prompt: Could you check what this test reported for "CN1/C(=C\C=C\C2=[N+](C)c3ccccc3C2(C)C)C(C)(C)c2ccccc21" ?
Response: true (1)

Prompt: Recorded call for C=C1C(=O)O[C@H]2[C@H]1CC/C(COC(=O)NCC(C)c1ccc(CC(C)C)cc1)=C\CC[C@@]1(C)O[C@@H]21 (stereo partly drawn) ?
Response: false (0)

Prompt: GET /call?item= "O=C(O)[C@@H](Cc1ccc2ccccc2c1)NC(=O)n1c2ccccc2c2ccccc21" returns the recorded outcome of this test.
Response: false (0)

Prompt: Tell me the assay call for "O=S(=O)(CCCl)c1ccc(Cl)cc1" please.
Response: false (0)

Prompt: Hello, I am checking results. What call was entered for "CN(C)c1ccc(-c2ccc(-c3ccc(C(=N)N)cc3)s2)cc1" ?
Response: true (1)

Prompt: Which result was noted for this compound in the test: "C=C1C(=O)O[C@H]2[C@H]1CC/C(C=Nc1c(N)cc(C(F)(F)F)cc1Br)=C\CC[C@@]1(C)O[C@@H]21"
Response: false (0)

Prompt: Fill in: this test's call for "CC(C)(C)OC(=O)NCCCCCCCn1c2c(c3ccccc3c1=O)C(=O)c1ccccc1-2" is ___
Response: false (0)

Prompt: In this assay, the call recorded for "O=c1oc2ccc(I)cc2c(=O)n1-c1ccc(Cl)cc1F" was what?
Response: true (1)

Prompt: Hello, I am checking results. What call was entered for "O=S(=O)(NCCCNc1nccc(-c2c(-c3ccc(F)cc3)nc3sccn23)n1)c1ccc2ccccc2c1" ?
Response: false (0)

Prompt: # outcome recorded in this test, key = COC(=O)C1(C)Cc2cc(OC(C)=O)c(OC(C)=O)cc2N1 (stereo not drawn)
Response: false (0)

Prompt: Check the results log: what was the call for C=C(CNCCc1ccc(O)cc1)[C@@H]1CC[C@]2(COC3CCCCO3)CC[C@]3(C)[C@H](CC[C@@H]4[C@@]5(C)CCC(NCCO)C(C)(C)[C@@H]5CC[C@]43C)[C@@H]12 (stereo partly drawn) ?
Response: false (0)

Prompt: Which outcome was entered for the compound "C=C1C[C@@H]2CC[C@@]34C[C@H]5O[C@H]6[C@@H](O3)[C@H]3O[C@H](CC[C@@H]3O[C@H]6[C@@H]5O4)CC(=O)C[C@@H]3[C@@H](OC)[C@@H](C[C@H](O)CN)O[C@H]3C[C@H]3O[C@@H](CC[C@@H]1O2)C[C@@H](C)C3=C" in this test?
Response: true (1)

Prompt: Kindly provide the recorded test outcome for the following compound: "CCCCn1c(-c2ccc(C(=O)O/N=C(\N)c3ccc4c(c3)OCO4)cc2)nc(-c2ccccc2)c1-c1ccccc1"
Response: true (1)

###

I'd be grateful if you could share measured GI50 for these entries.
System: EKVX NSCLC
ASSAY INFO: NCI tumour cell line growth inhibition, 48 h

Prompt: Recorded GI50 of "COc1cnc2c(c1)C(=O)c1c-2n(CCCN2CCN(C)CC2)c(=O)c2cc([N+](=O)[O-])ccc12" , please.
Response: 0.514 µM

Prompt: State the recorded GI50 for this entry: "CNC(=O)c1nn(C)c2c1C(C)(C)Cc1cnc(Nc3ccc(N4CCN(C)CC4)cc3)nc1-2"
Response: 1.93 µM

Prompt: Fill in the blank: the reported GI50 of "O=C(N[C@@H](C[Se][Se]C[C@H](NC(=O)c1ccc(Br)cc1F)C(=O)O)C(=O)O)c1ccc(Br)cc1F" is ____.
Response: > 100 µM

Prompt: Would you mind telling me what GI50 value was observed for "O=c1c(F)cn(Cc2ccccc2CCl)c(=O)n1Cc1ccccc1CCl" ?
Response: 3.07 µM

Prompt: Requested field: GI50. Item: C[C@H]1CCCC(O)C(O)[C@@H]2C[C@H](O[Si](C)(C)C(C)(C)C)C[C@H]2[C@H](O[Si](C)(C)C(C)(C)C)C(O)C(O)C(=O)O1 (some centres not stated)
Response: 26.1 µM

Prompt: Item under review: "Cc1ccc(-c2nc3nc(-c4ccc(F)cc4)nc(N4CCCNCC4)c3o2)cc1" . Reported GI50?
Response: 1.78 µM

Prompt: Would you kindly share the measured GI50 for COc1ccc(/C(=N\NC(=S)NN)C(c2ccc(OC)cc2)C2C(=O)Oc3ccccc32)cc1 (configuration not stated) ?
Response: > 100 µM

Prompt: // lookup GI50 for "COc1ccc(OC)c(Cn2cc3c(c2-c2ccccc2)CCc2cnoc2-3)c1"
Response: 6.9 µM

Prompt: # get_value(readout='GI50', item= "COc1cc(NCCCCCCCNC(C)C)c2nccc(C)c2c1" )
Response: 10.9 µM

Prompt: Fill in the blank: the reported GI50 of "CC(C)(C)C(=O)[CH-]C(=O)C(C)(C)C.CC(C)(C)C(=O)[CH-]C(=O)C(C)(C)C.CN(C)c1ccc([O-])cc1.CN(C)c1ccc([O-])cc1.[Ti+4]" is ____.
Response: > 100 µM

Prompt: Report GI50 for C=C1C(=O)O[C@H]2[C@H]1CC/C(COC(=O)NCC(C)c1ccc(CC(C)C)cc1)=C\CC[C@@]1(C)O[C@@H]21 (some centres not stated) please.
Response: 3.85 µM

Prompt: Looking for the measured GI50 of O=C1OCC2=C1C(c1ccccc1)c1cc3c(cc1N2CCO)OCO3 (configuration not stated) , can you help?
Response: 14 µM

###

Answer each item with its documented TGI.
Test system: HOP-62 NSCLC
ASSAY INFO: NCI tumour cell line growth inhibition, 48 h
Only the number, expressed in µM, is required.

Prompt: Which measured TGI value corresponds to CCOC(=O)C1SC(=Nc2ccc(Cl)cc2)N=C1C (stereo not given) ?
Response: 36.2

Prompt: Which measured TGI value corresponds to "O=C1NCN(c2ccccc2)C12CCN(CCCN1CCN(CCOC(c3ccc(F)cc3)c3ccc(F)cc3)CC1)CC2" ?
Response: 3.81

Prompt: Tell me the measured TGI of "O=S(=O)(CCCl)c1ccc(Cl)cc1" , please.
Response: 30.6

Prompt: Recorded TGI of "COc1cc2c(cc1Cc1c(F)cccc1Cl)nc(-c1c(F)cccc1Cl)n2Cc1c(F)cccc1Cl" , please.
Response: 75.7

Prompt: Query (compound): "CCOC(=O)C#Cc1ccccc1" ; field requested: TGI
Response: 46.3

Prompt: Fill in: TGI of "CCCCCCCCCCCCCCCC[N+]1(C)CCOCC1" is ___
Response: 3.15

Prompt: Find the recorded TGI belonging to "COc1cc(NCCCCCCCNC(C)C)c2nccc(C)c2c1" and report it.
Response: 27.6

###

Test system: HCC-2998 colon
ASSAY INFO: NCI tumour cell line growth inhibition, 48 h; in the data active = GI50 below about 0.43 µM; inactive = the rest
Give one outcome, nothing more. List: T for active, F for inactive

Prompt: Each molecule tested received a call. Report the one for C=C1C(=O)O[C@H]2[C@H]1CC/C(COC(=O)NCC(C)c1ccc(CC(C)C)cc1)=C\CC[C@@]1(C)O[C@@H]21 (some centres undefined) .
Response: F

Prompt: Record lookup: outcome of this test for COc1ccc(C(=O)c2ccc([As]=O)cc2)cc1 (centres undefined) ?
Response: T

Prompt: # fetch the recorded call for "CCCCn1c(-c2ccc(C(=O)O/N=C(\N)c3ccc4c(c3)OCO4)cc2)nc(-c2ccccc2)c1-c1ccccc1" here
Response: F

Prompt: Recorded call for "C=C(CN(C)C)C(=O)c1ccccc1[N+](=O)[O-]" ?
Response: F

Prompt: What was the test verdict on "O=C(O)[C@@H](Cc1ccc2ccccc2c1)NC(=O)n1c2ccccc2c2ccccc21" ?
Response: F

Prompt: // outcome(item) with item = "O=c1c(F)cn(Cc2ccccc2CCl)c(=O)n1Cc1ccccc1CCl"
Response: F

Prompt: Hi, sorry to bother you, what did the test record for "CN1/C(=C\C=C\C2=[N+](C)c3ccccc3C2(C)C)C(C)(C)c2ccccc21" ?
Response: T

Prompt: What was the test verdict on C[C@H]1CCCC(O)C(O)[C@@H]2C[C@H](O[Si](C)(C)C(C)(C)C)C[C@H]2[C@H](O[Si](C)(C)C(C)(C)C)C(O)C(O)C(=O)O1 (some centres undefined) ?
Response: F

Prompt: Assay result, entry "O=S(=O)(CCCl)c1ccc(Cl)cc1" — outcome?
Response: F
